- System: HCT-15 colon
- assay overview: NCI tumour cell line growth inhibition, 48 h
parameter: TGI

>  <molecule>
O=C(c1ccccc1)C1OC12C(=O)Nc1c(Cl)cc(Cl)cc12 (centres undefined)

>  <parameter>
TGI

>  <result>
> 70 µM

$$$$
>  <molecule>
COCc1cc(C(=O)Nc2cc([C@H]3CC[C@@H](OC(=O)NC(C)C)C3)[nH]n2)n(C)n1

>  <parameter>
TGI

>  <result>
> 100 µM

$$$$
>  <molecule>
NCC1OC(n2cnc3c(N)ncnc32)CC1O (centres undefined)

>  <parameter>
TGI

>  <result>
> 100 µM

$$$$

// below: TGI requested for another molecule
Reported TGI for O=C(Nc1ccc2[nH]c(C(=O)N3CC(CCl)c4c3cc([N+](=O)[O-])c3ccccc43)cc2c1)Nc1ccc2[nH]c(C(=O)N3CC(CCl)c4c3cc([N+](=O)[O-])c3ccccc43)cc2c1 (centres undefined) was > 100 µM

====

- Test system: HOP-62 NSCLC
- assay overview: NCI tumour cell line growth inhibition, 48 h
parameter: TGI

In the examples that follow, each entry is paired with its recorded TGI.
>  <compound>
CCOC(=O)c1cc2c(cc1Cl)SC(N(c1ccc(OC)cc1)S(=O)(=O)c1ccc(Cl)cc1)=NS2(=O)=O

>  <TGI>
> 100 µM

$$$$
>  <compound>
Oc1ccc(-c2nc3ccccc3s2)cc1CN(Cc1ccccn1)Cc1ccccn1

>  <TGI>
32.1 µM

$$$$
>  <compound>
COC(=O)C(Cc1c[nH]c2ccccc12)NC(=O)c1ccc(-c2ccc(Cl)cc2Cl)o1 (configuration not stated)

>  <TGI>
> 100 µM

$$$$
>  <compound>
COc1cc(N(C)C)c(OC)cc1/C=C\c1ccnc2ccccc12

>  <TGI>
> 10 µM

$$$$
>  <compound>
COc1cc(/C=N/n2c(-c3ccccc3)nn(C(C)=O)c2=O)cc(OC)c1OC

>  <TGI>
> 100 µM

$$$$

Reported TGI for `CC(C)NC(=O)N(Nc1ccccc1)C(C)(C)C` was > 100 µM

Reported TGI for COC(=O)C1(C#N)C(C)(C)N=C(c2ccccc2)C12CCCCC2 (configuration not stated) was > 100 µM

Reported TGI for `C=CC(=O)Nc1cc(C)ccc1Nc1nc(Nc2cc(OC)ncc2C)ncc1C(F)(F)F` was > 66.7 µM

====

- Test system: UACC-62 melanoma
- assay overview: NCI tumour cell line growth inhibition, 48 h
parameter: TGI

In the examples that follow, each entry is paired with its recorded TGI.
>  <molecule>
CC(C)N=C(N)NC#N

>  <result>
> 100 µM

$$$$
>  <molecule>
COc1ccc(CCCNC(=O)c2cc(OC)c(OC)cc2CCO)cc1OC

>  <result>
> 100 µM

$$$$
>  <molecule>
O=c1ccn(COC(COCc2ccccc2)COCc2ccccc2)c(=O)[nH]1

>  <result>
> 100 µM

$$$$

Reported TGI for `O=C1C(=O)N(c2cccc(C(F)(F)F)c2)C(=S)N1c1ccccc1` was 31.3 µM

Reported TGI for O=c1ncc(F)cn1C1OC(CO)C(O)C1O (stereo unspecified) was > 64.1 µM

Reported TGI for `CC(C)=CCC[C@](C)(O)[C@H]1CC[C@]2(C)[C@@H]1CC[C@@H]1[C@@]3(C)CC/C(=N/O)C(C)(C)[C@@H]3CC[C@]12C` was > 100 µM

====

- Test system: SNB-19 CNS
- assay overview: NCI tumour cell line growth inhibition, 48 h
parameter: TGI

In the examples that follow, each entry is paired with its recorded TGI.
>  <compound>
N#CC(=N)c1ncn(-c2ccc(N)cc2)c1N

>  <tgt>
SNB-19 CNS

>  <TGI>
> 100 µM

$$$$
>  <compound>
CC(=O)C1=C(O)C=C2Oc3c(C(=O)/C=C/c4c(Cl)cccc4Cl)c(O)c(C)c(O)c3[C@]2(C)C1=O

>  <tgt>
SNB-19 CNS

>  <TGI>
5.93 µM

$$$$
>  <compound>
O=Nc1ccc(NO)c2ccccc12

>  <tgt>
SNB-19 CNS

>  <TGI>
28.5 µM

$$$$
>  <compound>
CCC(=O)Nc1ccc(NC(C#N)c2cccc(Oc3ccccc3)c2)cc1 (stereo unspecified)

>  <tgt>
SNB-19 CNS

>  <TGI>
> 100 µM

$$$$
>  <compound>
CN1C(=O)C2(C=CC(O)CC2)c2ccccc21 (stereo unspecified)

>  <tgt>
SNB-19 CNS

>  <TGI>
> 100 µM

$$$$

// below: TGI requested for another compound
Reported TGI for `Nc1nnnn1CCO` was > 100 µM

====

- Test system: OVCAR-4 ovarian
- assay overview: NCI tumour cell line growth inhibition, 48 h
parameter: log10 of TGI (log10 of the value in µM)
Short version: log10 scale, TGI, µM.

In the examples that follow, each entry is paired with its recorded log10 of TGI.
>  <smiles code>
CC(=O)c1c(C)[nH]c(-c2nc3ccc(N4CCN(C)CC4)cc3[nH]2)c1-c1ccc(N(C)C)cc1

>  <tgt>
OVCAR-4 ovarian

>  <log10 of TGI>
1.53

$$$$
>  <smiles code>
CCOC(=O)c1cc2/c(=C\c3ccc(N(C)C)cc3)c3ccccc3n2[n+]1C

>  <tgt>
OVCAR-4 ovarian

>  <log10 of TGI>
1.14

$$$$
>  <smiles code>
COc1cc(NCCCN=C(N)NC(N)=NC(C)C)c2ncccc2c1

>  <tgt>
OVCAR-4 ovarian

>  <log10 of TGI>
0.21

$$$$

Reported log10 of TGI for `COc1cc(C(=O)N2CCN(c3ncnc4ccccc34)CC2)c(N)cc1OCc1ccccc1` was 1.67

Reported log10 of TGI for `O=c1cc(-c2cccc3c2Sc2ccccc2S3)oc(N2CCOCC2)c1` was 1.50

====

- System: OVCAR-8 ovarian
- assay overview: NCI tumour cell line growth inhibition, 48 h
parameter: TGI

In the examples that follow, each entry is paired with its recorded TGI.
>  <compound>
Nc1nnnn1CCO

>  <TGI>
> 100 µM

$$$$
>  <compound>
C[C@@]12CCC[C@@](C)(C(=O)O)C1CC[C@]13C[C@@](O)(CO)[C@](O)(CCC12)C3 (stereo not given in full)

>  <TGI>
> 100 µM

$$$$
>  <compound>
COCc1cc(C(=O)Nc2cc([C@H]3CC[C@@H](OC(=O)NC(C)C)C3)[nH]n2)n(C)n1

>  <TGI>
> 100 µM

$$$$

Reported TGI for O=C(CCN1CCN(c2ccccc2)CC1)N1CCc2c([nH]c3ccccc23)C1c1cccnc1 (stereo not given) was 30.4 µM

Reported TGI for CC(=O)OCC1OC(n2c(-c3ccccc3)c(C(C)=O)c(-c3cccc4ccccc34)c(C#N)c2=S)C(OC(C)=O)C(OC(C)=O)C1OC(C)=O (stereo not given) was > 100 µM

====

# key: entry, value: TGI
- Test system: UACC-257 melanoma
- assay overview: NCI tumour cell line growth inhibition, 48 h

In the examples that follow, each entry is paired with its recorded TGI.
>  <compound>
COc1cc(C2SCC(=O)N2c2ncc(C)s2)cc(OC)c1OC (stereo not drawn)

>  <parameter>
TGI

>  <result>
> 50 µM

$$$$
>  <compound>
CC(=O)OC(C)(C)/C(C)=C/C(=O)O[C@H]1C(=O)O[C@@H]2C[C@H]3[C@H](C)C(=O)C(O[C@@H]4O[C@H](CO)[C@@H](O)[C@H](O)[C@H]4O)=C[C@]3(C)[C@H]3[C@@H](O)[C@H](O)[C@@]4(C(=O)O)OC[C@]32[C@@H]14

>  <parameter>
TGI

>  <result>
> 100 µM

$$$$

Reported TGI for COC(=O)C(C(=O)C(=O)Nc1ccc([N+](=O)[O-])cc1[N+](=O)[O-])c1nc2ccc(Cl)cc2[nH]c1=O (stereo not drawn) was > 100 µM

Reported TGI for `CN(C)CCn1c(=O)c2ccc(NCCN3CCNCC3)c3c(=O)c4ccccc4n(c1=O)c23` was 17.3 µM

====

- Tested on: HOP-92 NSCLC
- assay overview: NCI tumour cell line growth inhibition, 48 h
parameter: TGI (µM)
Field: numeric (µM). Do not append units.

>  <compound>
Cc1cccc(C(C)(C)C)c1NC(=O)CC1C(=O)Nc2ccccc2S1(=O)=O (centres undefined)

>  <result number>
25.3

$$$$
>  <compound>
O=C(c1ccccc1)C(CN1CCCCC1)c1ccccc1 (centres undefined)

>  <result number>
3.88

$$$$
>  <compound>
N#Cc1c(N2CCC(O)C2)c2ccccc2n2c1nc1ccccc12 (centres undefined)

>  <result number>
95.7

$$$$

Reported TGI for `CN(C)CCn1c(=O)c2ccc(NCCN3CCNCC3)c3c(=O)c4ccccc4n(c1=O)c23` was 9.59

Reported TGI for `CC(C)NC(=O)OCc1c(CO)c2c(n1C)-c1ccccc1CC2` was 53.7

Reported TGI for `Cn1cnc([N+](=O)[O-])c1Sc1nccn1-c1cccc2ccccc12` was 54.9

Reported TGI for `CCN(CC)CCCNCc1cc(-c2ccccc2)nc2ccccc12` was 9.41
